# assayTarget: pre-pro-human insulin
measureName: Selectivity

Ask: Would you mind telling me what Selectivity value was observed for trypsin variant SEQ ID NO: 30 (protein) IVGGYTCAANSIPYQVSLNSGSHSCGGSLINSQWVVSAAHCYKSRIQVRLGEHNIDVLEGNEQFINAAKIITHPNFNGNTLDNDIMLIKLSSPATLNSRVATVSLPRSCAAAGTECLISGWGNTKSSGSSYPSLLQCLKAPVLSDSSCKSSYPGQITGNMICVGFLEGGKDACQGDSGGPVVCNGQLQGIVSSGYGCAQKNKPGVYTKVCNYVNWIQQTIAAN ?
Result: >70%

Ask: Would you mind telling me what Selectivity value was observed for trypsin variant SEQ ID NO: 6 (protein) IVGGYTCAANSIPYQVSLNSGSHRCGGSLINSQWVVSAAHCYKSRIQVRLGEHNIDVLEGNEQFINAAKIITHPNFNGNTLDNDIMLIKLSSPATLNSFVATVSLPRSCAAAGTECLISGWGNTKSSGSSYPSLLQCLKAPVLSDSSCKSSYPGQITGNMICVGFLEGGKDACQGDSGGPVVCNGQLQGIVSSGYGCAQKNKPGVYTKVCNYVNWIQQTIAAN ?
Result: >90%

Ask: Would you mind telling me what Selectivity value was observed for trypsin variant SEQ ID NO: 79 (protein) IVGGYTCAANSIPYQVSLNSGSHRCGGSLINSQWVVSAAHCYKPRIQVRLGEHNIHVLEGNEQFINAAKIITHPNFNPNTLDNDIMLIKLSSPATLNSHVATVSLPRSCAAAGTECLISGWGNTASSGSSMPSLLQCLKAPVLSDSSCKSSYPGQITGNMICVGFLEGGKDACQGDSGGPVVCNGQLQGIVSSGYGCAQKNKPGVYTKVCNYVNWIQQTIAAN ?
Result: >90%

Ask: Would you mind telling me what Selectivity value was observed for porcine trypsin variant no. 105 (SEQ ID NO: 105) (protein) IVGGYTCAANSIPYQVSLNSGSHRCGGSLINSQWVVSAAHCYKSRIQVRLGEHNIHVLEGNEQFINAAKIITHPNFNPNTLDNDIMLIKLSSPATLNSNVATVSLPTSCAAAGTECLISGWGNTASSGSSYPSLLQCLKAPVLSDSSCKSSYPGQITGNMICVGFLEGGADACQGDSGGPVVCNGQLQGIVSSGYGCAQKNKPGVYTKVCNYVNWIQQTIAAN ?
Result: >90%

Ask: Would you mind telling me what Selectivity value was observed for trypsin variant SEQ ID NO: 127 (protein) IVGGYTCAANSIPYQVSLNSGSHRCGGSLINSQWVVSAAHCYKYRIQVRLGEHNIDVLEGNEQFINAAKIITHPNFNGNTLDNDIMLIKLSSPATLNSRVATVSLPRSCAAAGTECLISGWGNTKSSGSSYPSLLQCLKAPVLSDSSCKSSYPGQITGNMICVGFLEGGKDACQGDSGGPVVCNGQLQGIVSSGYGCAQKNKPGVYTKVCNYVNWIQQTIAAN ?
Result: 20.5%
